B1: HDV Ribozyme (parent)
chain: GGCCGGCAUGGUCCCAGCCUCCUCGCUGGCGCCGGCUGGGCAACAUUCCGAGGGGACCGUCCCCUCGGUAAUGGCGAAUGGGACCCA

variants of: B1; assay: self-cleavage, relative activity (ratio to wild type); higher = more cleavage; co-transcriptional
Use self-cleavage to assign classes; range list: low-valued: < 0.1; mid-valued: ≥ 0.1 and < 0.8; high-valued: ≥ 0.8

[Q] Band of G6U U9G ?
[A] mid-valued

[Q] Band assignment needed for G17C G73C please.
[A] low-valued

[Q] Place this variant in its band: G2A C24A
[A] low-valued

[Q] Band for C30G G39C ?
[A] mid-valued

[Q] Assign a bin to G10A G54U
[A] high-valued

[Q] # bin lookup: classify C14G G34A by its self-cleavage
[A] low-valued

[Q] Pick a category. Item: G1A A45U
[A] mid-valued

[Q] Band for G34A A83C ?
[A] mid-valued

[Q] Category of C22G C63U :
[A] mid-valued

[Q] Note: place this variant into its band. Item: A56C U65A
[A] high-valued

[Q] For the record C26U A78C , report the class its self-cleavage corresponds to.
[A] mid-valued

[Q] The entry to classify is G17C C19U ; which class holds it?
[A] mid-valued

[Q] Form: Item = C13A U37C ; Class = ?
[A] mid-valued

[Q] State the class of the variant shown: C7A C64G
[A] mid-valued

[Q] Which category does the recorded self-cleavage put G54A G55C in?
[A] high-valued

[Q] Dear colleague, I would appreciate it if you could identify the bin for U27A G55A and reply at your convenience.
[A] high-valued

[Q] Please let me know in which category the item G52U G74A belongs.
[A] mid-valued

[Q] Assign a bin to G2A G67U
[A] mid-valued

[Q] Into which bin does this variant go? C49A C66U
[A] high-valued

[Q] In plain terms, what class is C26G C61U ?
[A] high-valued

[Q] Lab note: sort G17C C21A into the matching self-cleavage band.
[A] low-valued

[Q] Which class holds C33G A42G ?
[A] low-valued

[Q] Could you place G6A G52A in its proper category? Many thanks.
[A] high-valued

[Q] Band for C64G C86A ?
[A] high-valued

[Q] Lab log: C19A G81U — assign self-cleavage category
[A] mid-valued

[Q] Place this variant in its band: C84A C85A
[A] mid-valued

[Q] In plain terms, what class is G35U G73C ?
[A] mid-valued

[Q] Lab note: which band did U23A C41A land in?
[A] high-valued

[Q] Field: class (self-cleavage) — entry: G59C G68U
[A] high-valued

[Q] Returns: class label. Input: G31A U79A
[A] mid-valued

[Q] Categorize the following entry: C33A A43C
[A] low-valued

[Q] Input C19A C66U ; output its category
[A] mid-valued

[Q] Exam item: assign C14A G53U to the correct category.
[A] high-valued

[Q] Which category does the recorded self-cleavage put U12A G55A in?
[A] mid-valued

[Q] # bin label for G55A G67A
[A] high-valued

[Q] Into which category would you place C33G C41G ?
[A] mid-valued

[Q] Band of G31C C66G ?
[A] mid-valued

[Q] # bin label for A16U C18A
[A] mid-valued

[Q] Hi, small favor: classify G29A U37C by its self-cleavage when you get a moment.
[A] mid-valued

Numbers sourced from the RNAGym collection of RNA variant scans (doi:10.7554/elife.80360).
